experiment: Stability of target analytes in the breath collection device; assay type: physicochemical; conditions: Day 14, breath collection device
With a cut-off of 70%, any Analyte Stability (%) at Room Temperature (20-25° C.) strictly below it is called T; any Analyte Stability (%) at Room Temperature (20-25° C.) meeting it or above is called F.

- CCCCCc1cc(O)c2c(c1)OC(C)(C)[C@@H]1CCC(C)=C[C@@H]21 [Δ^9-THC, Δ^9-tetrahydrocannabinol]: T
- CCCc1cc(O)c2c(c1)OC(C)(C)[C@@H]1CCC(C)=C[C@@H]21 [Δ^9-THCV, Δ^9-tetrahydrocannabivarin]: T
- CCCCCc1cc(O)c2c(c1)OC(C)(C)c1ccc(C)cc1-2 [CBN, cannabinol]: F
- CCCCCc1cc(O)c(C/C=C(\C)CCC=C(C)C)c(O)c1 [CBG, cannabigerol]: F

Kindly review the next compound as well.
input: In the record for CCCCCc1cc(O)c2c(c1)OC(C)(CCC=C(C)C)C=C2 (centres unmarked) [CBC, cannabichromene] , is Analyte Stability (%) at Room Temperature (20-25° C.) less than 70%?
output: F
